Overview of reported koff across a group of binders:
Target: T1, human soluble ULBP2 (hULBP2) (human, UniProt Q9BZM5 26-216)
T1 construct: also called sULBP2
T1 sequence: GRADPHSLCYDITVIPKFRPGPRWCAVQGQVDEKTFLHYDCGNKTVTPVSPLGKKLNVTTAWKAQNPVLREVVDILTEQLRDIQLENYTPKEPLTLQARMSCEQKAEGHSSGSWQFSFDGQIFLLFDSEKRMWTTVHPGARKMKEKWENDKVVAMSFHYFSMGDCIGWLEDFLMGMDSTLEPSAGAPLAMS
Test: SPR (BIACORE 8K, 37 C); antibody captured on Protein A, soluble ULBP injected;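 also: ligand injected as threefold dilution series in HBS-P (highest 10 or 50 nM), reference-cell and buffer-subtracted sensorgrams fitted with a 1:1 Langmuir model for on and off rates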
endpointLabel: koff

binder	endpointLabel	recordedValue
humanized 6E1 (h6E1), Fc version not stated (antibody, V domains shown, Recombinant humanized antibody, hIgG1 backbone with kappa light chain; also called hu6E1; PUR3993) VH: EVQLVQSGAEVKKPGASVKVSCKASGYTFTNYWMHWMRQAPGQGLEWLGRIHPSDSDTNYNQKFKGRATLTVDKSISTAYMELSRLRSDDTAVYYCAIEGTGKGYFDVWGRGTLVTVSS VL: DIQMTQSPSSLSASVGDRVTITCKASQDIYSYLSWFQQKPGKSPKTLIYRANRLVDGVPSRFSGSGSGQDFTLTISSLQPEDFATYYCLHYDEFPLTFGGGTKVEIK	koff	0.0386 s⁻¹
humanized 7B3 (h7B3), Fc version not stated (antibody, V domains shown, Recombinant humanized antibody, hIgG1 backbone with kappa light chain; also called hu7B3; PUR3922) VH: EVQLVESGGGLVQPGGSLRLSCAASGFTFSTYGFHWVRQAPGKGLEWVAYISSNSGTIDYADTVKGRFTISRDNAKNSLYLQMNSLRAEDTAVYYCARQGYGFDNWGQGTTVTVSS VL: DIQLTQSPSSLSASVGDRVTITCSASSRVSYMNWYQQKPGKSPKIWVYGISNLASGVPSRFSGSGSGTDFTFTISSLQPEDIATYYCQQRSSHPLTFGGGTKVEIK	koff	0.000507 s⁻¹
humanized 8E11 (h8E11), Fc version not stated (antibody, V domains shown, Recombinant humanized antibody, hIgG1 backbone with kappa light chain; also called PUR3926) VH: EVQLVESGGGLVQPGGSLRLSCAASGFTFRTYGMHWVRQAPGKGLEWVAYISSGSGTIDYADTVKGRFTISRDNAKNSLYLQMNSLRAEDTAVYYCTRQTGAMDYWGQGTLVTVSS VL: EIVLTQSPATLSLSPGERATLSCSASSSVSYMNWYQQKPGQSPRLWIYGISNLASGVPARFSGSGSGTDFTLTISSLEPEDFAVYYCQQRSSHPLTFGGGTKVEIK	koff	0.000542 s⁻¹
humanized 1D4 (h1D4), Fc version not stated (antibody, V domains shown, Recombinant humanized antibody, hIgG1 backbone with kappa light chain; also called hiD4; hu1D4) VH: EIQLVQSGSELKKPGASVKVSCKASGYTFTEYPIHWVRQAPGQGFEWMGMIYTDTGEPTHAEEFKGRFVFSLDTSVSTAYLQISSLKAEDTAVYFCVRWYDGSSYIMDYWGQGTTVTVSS VL: DIQMTQSPSSLSASVGDRVTITCKASQDINSYLSWFQQKPGKSPKTLIYRANRLVDGVPSRFSGSGSGQDYTFTISSLQPEDIATYYCLQYDEFPLTFGGGTKVEIK	koff	0.00148 s⁻¹
